- Test system: PC12 cells
- protocol: Cytotoxicity in PC12 cells
- Format: cell-based
- condition set: 10 μM, 24 h
Binary call on inhibition ratio (cytotoxic effect, cell proliferation): 1 from 7% upward, 0 beneath that.

* COc1c(OC(=O)N(C)c2ccccc2C)cc2oc3cc4c(c(O)c3c(=O)c2c1CC=C(C)C)C=CC(C)(C)O4 [AMG-3] | 0
* CC1=NN(c2ccccc2)C(=O)C1 [edaravone, reference compound] | 0
* CCN(C(=O)Oc1cc2oc3cc4c(c(O)c3c(=O)c2c(CC=C(C)C)c1OC)C=CC(C)(C)O4)c1ccccc1 [AMG-2] | 0
* COc1c(O)cc2oc3cc(O)c(CC=C(C)C)c(O)c3c(=O)c2c1CC=C(C)C [α-M, reference compound] | 1

These measurements were taken from paper PMC7203693.
